- Assayed Target: T1, recombinant human IL-23 (human, UniProt Q9NPF7 20-189; P29460 23-328)
- T1 construct: also called hIL-23
- T1 sequence 1: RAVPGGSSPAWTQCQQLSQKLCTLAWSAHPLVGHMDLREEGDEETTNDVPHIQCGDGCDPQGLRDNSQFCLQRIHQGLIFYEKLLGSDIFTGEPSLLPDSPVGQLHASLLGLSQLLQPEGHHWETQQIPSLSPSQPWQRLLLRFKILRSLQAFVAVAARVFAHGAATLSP
- T1 sequence 2: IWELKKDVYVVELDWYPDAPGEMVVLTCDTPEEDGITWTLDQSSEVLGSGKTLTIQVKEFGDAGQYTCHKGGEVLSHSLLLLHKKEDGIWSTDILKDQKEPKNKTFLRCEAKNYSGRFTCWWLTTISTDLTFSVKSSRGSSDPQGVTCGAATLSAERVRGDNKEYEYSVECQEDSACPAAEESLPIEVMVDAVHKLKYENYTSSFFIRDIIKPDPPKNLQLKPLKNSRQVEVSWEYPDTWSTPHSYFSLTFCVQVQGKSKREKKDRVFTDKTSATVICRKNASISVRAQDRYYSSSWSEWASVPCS
- Assay: SPR (Biacore T100), tissue culture supernatant antibody captured on anti-human IgG, IL-23 analyte
Metric Name: kon (M⁻¹ s⁻¹)
Quick note: give the figure in M⁻¹ s⁻¹, leave out the unit.

Prompt: Given the entry A10M4 (antibody, human IgG1, kappa, V domains shown, Full length chains) VH: QVQLVQSGAEVKKPGSSVKVSCKASGYTFASYGITWVRQAPGQGLEWMGENYPRSGNTYYNEKFKGRVTITADKSTSTAYMELSSLRSEDTAMYYCARSEFISTVVAPYYYALDYWGQGTLVTVSS VL: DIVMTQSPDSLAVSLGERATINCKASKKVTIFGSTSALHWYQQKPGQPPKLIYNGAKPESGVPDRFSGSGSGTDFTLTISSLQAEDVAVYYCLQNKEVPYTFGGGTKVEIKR , report its measured kon.
Response: 1.46e+06

Prompt: Given the entry A10.5M3 (antibody, V domains shown) VH: QVQLVQSGAEVKKPGSSVKVSCKASGYTFASYGITWVRQAPGQGLEWMGENYPRSGNTYYNEKFKGRVTITADKSTSTAYMELSSLRSEDTAVYYCARSEFISTVVAPYYYALDYWGQGTLVTVSS VL: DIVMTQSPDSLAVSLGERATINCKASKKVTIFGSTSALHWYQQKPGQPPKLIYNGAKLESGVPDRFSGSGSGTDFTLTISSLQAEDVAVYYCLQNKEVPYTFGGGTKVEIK , report its measured kon.
Response: 1.19e+06
